This collection of values is drawn from PubChem BioAssay AID330.

Please provide measured T/C for the entries that follow.
System: P388 leukemia ip, CD2F1 mice, survival T/C
Procedure Details: NCI In Vivo Anticancer Drug Screen. Data for tumor model P388 Leukemia (intraperitoneal) in CD2F1 (CDF1) mice
Run Parameters: endpoint: median survival time; dose: 100.0 mg/kg/injection; schedule: Q01DX009 (ip); vehicle: suspension in saline; higher = longer survival
Toxic doses and inconclusive results are not listed.

# annotated cases, reported T/C shown
[[record]]
compound = "CCOc1ccc(C(c2ccc(OCC)cc2)C(C)C)cc1"
quantity_measured = "T/C"
reported = "100 % of control"

[[record]]
compound = "O=C(OCC(Cl)(Cl)Cl)N1C2C3OC3C(C3OC32)N1C(=O)OCC(Cl)(Cl)Cl (stereo not drawn)"
quantity_measured = "T/C"
reported = "92 % of control"

[[record]]
compound = "O=C1CSC(=S)N1c1ccc(F)cc1"
quantity_measured = "T/C"
reported = "100 % of control"


Dear colleague, could you please provide T/C for the compounds listed below?
1. Nc1c(C(=O)Nc2ccc(NC(=O)c3ccc4c(c3N)C(=O)c3ccccc3C4=O)c3c2C(=O)c2ccccc2C3=O)ccc2c1C(=O)c1ccccc1C2=O
2. Fc1ccc(CSC(=S)Nc2cccc(C(F)(F)F)c2)cc1
3. Nc1ccc(/C=C/c2ccc(N)cc2S(=O)(=O)O)c(S(=O)(=O)O)c1
4. O=C(O)c1cc2cccc([N+](=O)[O-])c2[se]1
5. CCOc1cc(=O)cc2n(-c3cc(OCC)c(OC)c(OCC)c3)c3ccccc3nc1-2

["106 % of control", "90 % of control", "99 % of control", "96 % of control", "101 % of control"]

----------
System: P388 leukemia ip, CD2F1 mice, survival T/C
Procedure Details: NCI In Vivo Anticancer Drug Screen. Data for tumor model P388 Leukemia (intraperitoneal) in CD2F1 (CDF1) mice
Run Parameters: endpoint: median survival time; dose: 100.0 mg/kg/injection; schedule: Q01DX005 (ip); vehicle: saline with Tween-80; higher = longer survival
Toxic doses and inconclusive results are not listed.
Quantity Measured: T/C

[[record]]
smiles_str = "S=C1N(c2ccc(Br)cc2)C2=Nc3ccccc3SC(=C2N=Nc2ccccc2Cl)N1c1ccc(Cl)cc1"
quantity_measured = "T/C"
reported = "93 % of control"

[[record]]
smiles_str = "COc1cccc(/C(C#N)=N/NC(=O)c2nc[nH]c2C)c1"
quantity_measured = "T/C"
reported = "87 % of control"

[[record]]
smiles_str = "Cc1ccc2oc(C(=O)Nc3nnc(-c4ccccc4)s3)cc(=O)c2c1"
quantity_measured = "T/C"
reported = "94 % of control"

[[record]]
smiles_str = "Cc1cc(NCCCCN2CCOCC2)nc2ccc3ccccc3c12"
quantity_measured = "T/C"
reported = "105 % of control"


Could you now look at the following compound, please?
Field T/C (system: P388 leukemia ip, CD2F1 mice, survival T/C) for entry `O=[N+]([O-])c1cc(I)c(O)c(/C=N/NS(=O)(=O)c2ccc(Cl)cc2)c1` = 100 % of control

----------
Tested on: P388 leukemia ip, CD2F1 mice, survival T/C
Procedure Details: NCI In Vivo Anticancer Drug Screen. Data for tumor model P388 Leukemia (intraperitoneal) in CD2F1 (CDF1) mice
Run Parameters: endpoint: median survival time; dose: 12.5 mg/kg/injection; schedule: Q01DX009 (ip); vehicle: saline with Tween-80; higher = longer survival
Inconclusive results and toxic doses are left out.
Quantity Measured: T/C

# annotated cases, reported T/C shown
[[record]]
compound = "CCCCCCC(Nc1ncnc(Cl)c1N)C(C)O (centres undefined)"
reported = "97 % of control"

[[record]]
compound = "CC(C)N(Cc1ccccc1)CC(O)c1ccc(Cl)cc1 (centres undefined)"
reported = "104 % of control"

[[record]]
compound = "O=C1c2ccccc2C(Cl)=C(Cl)C1(Cl)Cl"
reported = "104 % of control"

[[record]]
compound = "Clc1c(Cl)c(C[P+](CCP(c2ccccc2)c2ccccc2)(c2ccccc2)c2ccccc2)c(Cl)c(Cl)c1C[P+](CCP(c1ccccc1)c1ccccc1)(c1ccccc1)c1ccccc1"
reported = "120 % of control"

[[record]]
compound = "O=[N+]([O-])c1ccc(-c2sc(-c3ccccc3)nc2O)cc1"
reported = "100 % of control"

[[record]]
compound = "N#CCCN(C(=O)Nc1ccc(Cl)c(Cl)c1)C1CCCCC1"
reported = "98 % of control"

[[record]]
compound = "C[n+]1c(/C=C/c2ccccc2Cl)ccc2ccccc21"
reported = "94 % of control"

[[record]]
compound = "Cc1ccc(S(=O)(=O)OCC(C)(C)COS(=O)(=O)c2ccc(C)cc2)cc1"
reported = "105 % of control"

[[record]]
compound = "CSC(=S)N/N=C/c1ccccn1"
reported = "100 % of control"

[[record]]
compound = "[O-][n+]1c(CCl)nc2ccccc2c1-c1ccccc1F"
reported = "103 % of control"


Dear colleague, could you please provide T/C for the compounds listed below?
1. O=[N+]([O-])c1cccc(SNCCO)c1
2. ClCc1cccc2c(CCl)cccc12
3. COC(=O)CCCc1ccc(OC)c(OC)c1
4. CCC12NC(=O)NC1(C)NC(=O)N2 (centres undefined)

1. 108 % of control
2. 113 % of control
3. 100 % of control
4. 91 % of control
